# assay_explanation: Therapeutic index, ratio of CC50 for human MT4 cells to EC50 for HIV1 3B […] infected in human MT4 cells
# Assay type: toxicity, cell-based
# condition_context: read-out: Ratio CC50/EC50
test_readout: selectivity ratio

>>> readout_value("CC(C)c1nc(CN(C)C(=O)N[C@H](C(=O)N[C@@H](Cc2ccccc2)C[C@H](O)[C@H](Cc2ccccc2)NC(=O)OCc2cncs2)C(C)C)c[se]1")
76
>>> readout_value("CC(C)[C@H](NC(=O)N(C)Cc1c[se]c(-c2ccccc2)n1)C(=O)N[C@@H](Cc1ccccc1)C[C@H](O)[C@H](Cc1ccccc1)NC(=O)OCc1cncs1")
124

###

# assay_explanation: Cytotoxicity against human MT4 cells assessed as reduction in cell viability after 5 days by MTT assay
# Type: cell-based
test_readout: CC50 at 120 h (µM)

>>> readout_value("CC(C)c1nc(CN(C)C(=O)N[C@H](C(=O)N[C@@H](Cc2ccccc2)C[C@H](O)[C@H](Cc2ccccc2)NC(=O)OCc2cncs2)C(C)C)c[se]1")
42
>>> readout_value("CC(C)[C@H](NC(=O)N(C)Cc1c[se]c(-c2ccccc2)n1)C(=O)N[C@@H](Cc1ccccc1)C[C@H](O)[C@H](Cc1ccccc1)NC(=O)OCc1cncs1")
21
